These measurements were taken from paper PMC10221074.

tested on: A/Hamburg/05/2009 (H1N1); assay type: cell-based, influenza virus
measure: Viability of infected cells relative to aprotinin, Replicate 3

INSERT INTO assay_data (chain_sequence, measurement) VALUES
  ('SLLGLLDVVKNKVGQIGLL [LS-AMP-A3]', 0.04494),
  ('SLLGLLDVVKSKIGQTG [LS-AMP-A14]', 0.02099),
  ('SLLGLLDVVKNTVGQT [LS-AMP-A10]', 0.03391),
  ('SLLGLLDVVKSKVGQTGLL [LS-AMP-A18]', 0.01637),
  ('LLDVVKSKIGQTGLL [LS-AMP-A16]', 0.01877),
  ('SLLGLLDVVKNTVGQTGLL [LS-AMP-A8]', 0.01283),
  ('SLLGLLDVVKSKIGQTGLL [LS-AMP-A13]', 0.07331),
  ('SLLGLLDVVKNTVGQ [LS-AMP-A11]', 0.04417),
  ('SLFGLLDLVKNKVGQTGLL [LS-AMP-A2]', 0.06798),
  ('SLLGLLDVVKSKIGQT [LS-AMP-A15]', 0.03514),
  ('SLFGLLDLVKSKVGQTGLL [LS-AMP-A1]', 0.04316),
  ('DVVKSKVGQT [LS-AMP-A20]', 0.06978),
  ('SLLGLLDVVKNKVGQI [LS-AMP-A5]', 0.03984),
  ('SLLGLLDVVKNKVGQIG [LS-AMP-A4]', 0.01475),
  ('SLLGLLDVVKNTVGQTG [LS-AMP-A9]', 0.02362),
  ('GSLLGLLDVVKSKVGQTGLL [LS-AMP-A19]', 0.04612);

* * *

test system: Staphylococcus epidermidis DSM 28319; assay: Antibacterial growth assay (OD600); conditions: OD600, medium = 100, MH II broth, 37 °C, peptide 200 µM mixed 50 µL + 50 µL with bacteria; Figure 7: 48 h; replicate column 3
measure: Bacterial growth relative to medium, S. epidermidis, replicate 3

INSERT INTO results (chain_sequence, target_or_test_system, measurement) VALUES
  ('SLLGLLDVVKNTVGQTG [LS-AMP-A9]', 'Staphylococcus epidermidis DSM 28319', 65.3172),
  ('SLFGLLDLVKNKVGQTGLL [LS-AMP-A2]', 'Staphylococcus epidermidis DSM 28319', 90.9149),
  ('SLLGLLDVVKSKVGQTGLL [LS-AMP-A18]', 'Staphylococcus epidermidis DSM 28319', 89.1297);

* * *

system: A/Hessen/1/2003 (H3N2); format: cell-based, influenza virus
Threshold-based label: Viability of infected cells relative to aprotinin, Replicate 2 under 0.1 gives Y, Viability of infected cells relative to aprotinin, Replicate 2 not under 0.1 gives N.

INSERT INTO measurements (chain_sequence, assigned_category) VALUES
  ('SLLGLLDVVKNTVGQTGLL [LS-AMP-A8]', 'N'),
  ('SLLGLLDVVKSKIGQT [LS-AMP-A15]', 'N'),
  ('SLLGLLDVVKNKVGQI [LS-AMP-A5]', 'Y'),
  ('SLLGLLDVVKSKIGQTGLL [LS-AMP-A13]', 'Y');

* * *

system: Staphylococcus aureus DSM 2569; experiment: Antibacterial growth assay (OD600); details: OD600, medium = 100, MH II broth, 37 °C, peptide 200 µM mixed 50 µL + 50 µL with bacteria; Figure 7: 48 h; replicate column 2
Item-by-item account of Bacterial growth relative to medium, S. aureus, replicate 2
measure: Bacterial growth relative to medium, S. aureus, replicate 2

INSERT INTO results (chain_sequence, measurement) VALUES
  ('GSLLGLLDVVKSKVGQTGLL [LS-AMP-A19]', 71.4846),
  ('SLLGLLDVVKNKVGQIG [LS-AMP-A4]', 69.2609),
  ('DVVKSKVGQT [LS-AMP-A20]', 71.5501);

* * *

Item-by-item account of Bacterial growth relative to medium, S. epidermidis, replicate 3
system: Staphylococcus epidermidis DSM 28319; assay: Antibacterial growth assay (OD600); conditions: OD600, medium = 100, MH II broth, 37 °C, peptide 200 µM mixed 50 µL + 50 µL with bacteria; Figure 7: 48 h; replicate column 3
measure: Bacterial growth relative to medium, S. epidermidis, replicate 3

INSERT INTO assay_data (chain_sequence, measurement) VALUES
  ('SLFGLLDLVKSKVGQTGLL [LS-AMP-A1]', 103.22),
  ('SLLGLLDVVKNTVGQTGLL [LS-AMP-A8]', 77.5582),
  ('SLLGLLDVVKNKVGQIGLL [LS-AMP-A3]', 95.4096),
  ('SLLGLLDVVKSKIGQT [LS-AMP-A15]', 92.3812),
  ('SLLGLLDVVKSKIGQTG [LS-AMP-A14]', 74.4979),
  ('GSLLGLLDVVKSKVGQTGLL [LS-AMP-A19]', 92.445),
  ('LLDVVKSKIGQTGLL [LS-AMP-A16]', 72.1389),
  ('SLLGLLDVVKNKVGQI [LS-AMP-A5]', 71.8202),
  ('SLLGLLDVVKNTVGQT [LS-AMP-A10]', 83.073),
  ('SLLGLLDVVKNKVGQIG [LS-AMP-A4]', 70.1306);
